- subject of test: recombinant human NF-kappaB-inducing kinase (NIK/MAP3K14) (Homo sapiens)
- Sequence (Q99558 whole entry): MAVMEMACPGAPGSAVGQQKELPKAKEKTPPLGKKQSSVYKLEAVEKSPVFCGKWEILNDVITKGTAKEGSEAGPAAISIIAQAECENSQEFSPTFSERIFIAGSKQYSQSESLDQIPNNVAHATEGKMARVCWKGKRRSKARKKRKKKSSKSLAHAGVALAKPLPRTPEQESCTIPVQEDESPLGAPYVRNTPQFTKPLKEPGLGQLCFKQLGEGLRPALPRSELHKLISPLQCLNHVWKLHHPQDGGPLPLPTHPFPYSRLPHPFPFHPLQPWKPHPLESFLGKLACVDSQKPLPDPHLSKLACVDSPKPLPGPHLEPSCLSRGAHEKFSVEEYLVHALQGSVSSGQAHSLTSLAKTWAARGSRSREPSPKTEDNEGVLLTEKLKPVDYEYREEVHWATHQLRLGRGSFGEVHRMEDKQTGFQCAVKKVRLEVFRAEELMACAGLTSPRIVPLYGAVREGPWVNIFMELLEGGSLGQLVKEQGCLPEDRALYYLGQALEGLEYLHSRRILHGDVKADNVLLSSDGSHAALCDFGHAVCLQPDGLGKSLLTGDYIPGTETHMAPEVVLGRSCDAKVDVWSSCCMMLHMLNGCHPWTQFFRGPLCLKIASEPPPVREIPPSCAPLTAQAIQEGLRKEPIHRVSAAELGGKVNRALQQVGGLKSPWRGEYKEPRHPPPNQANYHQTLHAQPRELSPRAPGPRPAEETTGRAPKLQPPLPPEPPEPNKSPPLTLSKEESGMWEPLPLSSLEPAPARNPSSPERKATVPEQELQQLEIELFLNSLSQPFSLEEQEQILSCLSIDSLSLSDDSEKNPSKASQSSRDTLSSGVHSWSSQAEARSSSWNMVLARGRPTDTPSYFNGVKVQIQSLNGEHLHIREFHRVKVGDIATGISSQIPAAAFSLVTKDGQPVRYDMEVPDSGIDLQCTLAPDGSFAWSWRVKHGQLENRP
- measurement notes: Inhibition of auto-phosphorylation of recombinant human NIK/MAP3K14 activity (AlphaScreen), Biological Assay A
- Assay type: biochemical
- test conditions: averaged values over all measurements on all batches
# IC50 values compiled below
test readout: IC50 (nM)

CC1(CO)CNc2c(C#N)cc(-c3ccnc(Nc4ccc(C5CCOCC5)c(C(F)(F)F)c4)n3)cc21 (stereo not shown) [Compound 36]; 75.9
CC(=O)OC[C@@]1(C)CNc2c(C#N)cc(-c3ccnc(Nc4cc(C#N)ccc4C)n3)cc21 [Compound 125]; 13.8
Cc1ccc(C#N)cc1Nc1nccc(-c2cc(C#N)c3c(c2)[C@@](C)(COC(=O)[C@@H](N)C(C)C)CN3)n1 [Compound 139]; 56.2
Cc1ccc(C#N)cc1Nc1ncnc(-c2cc(C#N)c3c(c2)[C@@](C)(CO)CN3)n1 [Compound 213]; 4.2
Cc1cc(F)c(C#N)cc1Nc1nccc(-c2cc(C#N)c3c(c2)[C@@](C)(CO)CN3)n1 [Compound 11]; 1.8
COCCOc1cc(P(C)(C)=O)ccc1Nc1nccc(-c2cc(C#N)c3c(c2)[C@@](C)(CO)CN3)n1 [Compound 67]; 4.3
Cc1cc(F)c(C(=O)NCC2COC2)cc1Nc1nccc(-c2cc(C#N)c3c(c2)[C@@](C)(CO)CN3)n1 [Compound 183]; 9.1

###

- Tested on: JJN-3 (NIK translocated) multiple myeloma cells
- measurement notes: Antiproliferative activity on JJN-3 multiple myeloma cells (CellTiter-Glo, 96 hr), Biological Assay C
- Format: cell-based, human
- test conditions: Homo sapiens, JJN-3, 96 h, JJN-3 (NIK translocated) cells, averaged values, read-out: JJN-3 Proliferation inhibition (IC50 (nM))
test readout: IC50 (nM)

Cc1c(Nc2nccc(-c3cc(C#N)c4c(c3)[C@@](C)(CO)CN4)n2)cccc1C(=O)N1CC(C)OC(C)C1 (stereo partly shown) [Compound 199]; 76
C[C@]1(CO)CNc2c(C#N)cc(-c3ccnc(Nc4cc(CO)c(F)cc4OC4CC4)n3)cc21 [Compound 208]; 389
Cc1c(Nc2nccc(-c3cc(C#N)c4c(c3)[C@@](C)(CO)CN4)n2)cccc1C(=O)N1CCN(C2CC2)CC1 [Compound 206]; 71
Cc1ccc(C(=O)NC2CCN(C)C2)cc1Nc1nccc(-c2cc(C#N)c3c(c2)[C@@](C)(CO)CN3)n1 (mixture of isomers) [Compound 163]; 437

###

- Tested on: JJN-3 (NIK translocated) multiple myeloma cells
- measurement notes: Antiproliferative activity on JJN-3 multiple myeloma cells (CellTiter-Glo, 96 hr), Biological Assay C
- Format: cell-based, human
- test conditions: Homo sapiens, JJN-3, 96 h, JJN-3 (NIK translocated) cells, averaged values, read-out: JJN-3 Proliferation inhibition (IC50 (nM))
# IC50 values compiled below
test readout: IC50 (nM)

Cc1c(Nc2nccc(-c3cc(C#N)c4c(c3)C(C)(CO)CN4)n2)cc(Cl)cc1C(=O)N1CCN(C)CC1 (stereo not shown); 85
Cc1cc(F)c(CO)cc1Nc1nccc(-c2cc(C#N)c3c(c2)[C@@](C)(CO)CN3)n1; 272
Cc1cc(-c2cnn(C)c2)c(C#N)cc1Nc1nccc(-c2cc(C#N)c3c(c2)[C@@](C)(CO)CN3)n1; 54
C[C@]1(CO)CNc2c(C#N)cc(-c3ccnc(Nc4cc(C#N)c(C5CCOCC5)cc4OCC4CC4)n3)cc21; 1950

Data origin: patent US11180487B2
